# Tested on: PSN1 (Pancreatic Carcinoma)
# ASSAY_PROTOCOL: Bliss excess, mean over the matrix (fraction); higher = more synergy
Listing: Bliss excess of selected compounds

compound="N#Cc1cnc(Nc2cc(NC[C@H]3CNCCO3)c(C(F)(F)F)cn2)cn1 [SRA737] + O=c1[nH]cc(F)c(=O)[nH]1 [5-Fluorouracil] (first compound max 10 µM, 7x7, partner max 20 µM)" metric="Bliss excess" assay_result=0.0184
compound="CC1(C)CCC(CN2CCN(c3ccc(C(=O)NS(=O)(=O)c4ccc(NCC5CCOCC5)c([N+](=O)[O-])c4)c(Oc4cnc5[nH]ccc5c4)c3)CC2)=C(c2ccc(Cl)cc2)C1 [Venetoclax] + CS(=O)(=O)CCNCc1ccc(-c2ccc3ncnc(Nc4ccc(OCc5cccc(F)c5)c(Cl)c4)c3c2)o1 [Lapatinib] (first compound max 1 µM, 7x7, partner max 10 µM)" metric="Bliss excess" assay_result=-0.0211
compound="CC1(C)CCC(CN2CCN(c3ccc(C(=O)NS(=O)(=O)c4ccc(NCC5CCOCC5)c([N+](=O)[O-])c4)c(Oc4cnc5[nH]ccc5c4)c3)CC2)=C(c2ccc(Cl)cc2)C1 [Venetoclax] + COc1cc(Nc2ncc3c(n2)-c2ccc(Cl)cc2C(c2c(F)cccc2OC)=NC3)ccc1C(=O)O [Alisertib] (first compound max 1 µM, 7x7, partner max 10 µM)" metric="Bliss excess" assay_result=-0.0219

Q: Lookup: Bliss excess / PSN1 (Pancreatic Carcinoma) / N#Cc1cnc(Nc2cc(NC[C@H]3CNCCO3)c(C(F)(F)F)cn2)cn1 [SRA737] + CCc1c2c(nc3ccc(O)cc13)-c1cc3c(c(=O)n1C2)COC(=O)[C@]3(O)CC [SN-38] (first compound max 10 µM, 7x7, partner max 0.3 µM)
Result: -0.0149

Q: Lookup: Bliss excess / PSN1 (Pancreatic Carcinoma) / Cc1c2c(nn1C)CSCc1cc(n(C)n1)CSc1cc(c3ccccc3c1)OCCCc1c(C(=O)O)n(C)c3c-2c(Cl)ccc13 [AZD5991] + CC(=O)O[C@H]1C(=O)[C@@]2(C)[C@H]([C@H](OC(=O)c3ccccc3)[C@]3(O)C[C@H](OC(=O)[C@H](O)[C@@H](NC(=O)c4ccccc4)c4ccccc4)C(C)=C1C3(C)C)[C@]1(OC(C)=O)CO[C@@H]1C[C@@H]2O [Paclitaxel] (first compound max 1 µM, 7x7, partner max 3 µM)
Result: 0.0098

Q: Lookup: Bliss excess / PSN1 (Pancreatic Carcinoma) / Cc1c2c(nn1C)CSCc1cc(n(C)n1)CSc1cc(c3ccccc3c1)OCCCc1c(C(=O)O)n(C)c3c-2c(Cl)ccc13 [AZD5991] + C1CN(CCC1(C(=O)N[C@@H](CCO)C2=CC=C(C=C2)Cl)N)C3=NC=NC4=C3C=CN4 [Capivasertib] (first compound max 1 µM, 7x7, partner max 3 µM)
Result: -0.0533

====

Listing: Bliss excess of selected compounds
# System: GP5d (Colorectal Carcinoma)
# ASSAY_PROTOCOL: Bliss excess, mean over the matrix (fraction); higher = more synergy
Simply state the number, no unit and no words.

compound="CC1(C)CCC(CN2CCN(c3ccc(C(=O)NS(=O)(=O)c4ccc(NCC5CCOCC5)c([N+](=O)[O-])c4)c(Oc4cnc5[nH]ccc5c4)c3)CC2)=C(c2ccc(Cl)cc2)C1 [Venetoclax] + C[C@@H](Nc1cc(F)cc(F)c1)c1cc(C(=O)N(C)C)cc2c(=O)cc(N3CCOCC3)oc12 [AZD8186] (first compound max 1 µM, 7x7, partner max 3 µM)" measured_target="GP5d (Colorectal Carcinoma)" metric="Bliss excess" assay_result=-0.0188

Turning now to a further compound:
Q: Item under review: COc1cccc(OCCCN)c1-c1cc(Nc2cnc(C#N)cn2)n[nH]1 [Prexasertib] + CCc1c2c(nc3ccc(O)cc13)-c1cc3c(c(=O)n1C2)COC(=O)[C@]3(O)CC [SN-38] (first compound max 1 µM, 7x7, partner max 0.3 µM) . Reported Bliss excess?
Result: -0.0173

====

# Tested on: GB-1 (Glioblastoma)
# ASSAY_PROTOCOL: combination Emax (second highest fraction inhibited in the dose matrix, 72 h); higher = more inhibition; extreme values may be limits of the assay
METRIC: combination Emax
Simply state the number, no unit and no words.

Example entries begin here.
molecule="CC1(C)CCC(CN2CCN(c3ccc(C(=O)NS(=O)(=O)c4ccc(NCC5CCOCC5)c([N+](=O)[O-])c4)c(Oc4cnc5[nH]ccc5c4)c3)CC2)=C(c2ccc(Cl)cc2)C1 [Venetoclax] + COc1cc(Nc2ncc3c(n2)-c2ccc(Cl)cc2C(c2c(F)cccc2OC)=NC3)ccc1C(=O)O [Alisertib] (first compound max 1 µM, 7x7, partner max 10 µM)" metric="combination Emax" assay_result=0.478
molecule="CC(=O)Nc1cccc(-n2c(=O)n(C3CC3)c(=O)c3c(Nc4ccc(I)cc4F)n(C)c(=O)c(C)c32)c1 [Trametinib] + Cc1nc(-c2cn3c(n2)-c2ccc(-c4cnn(C(C)(C)C(N)=O)c4)cc2OCC3)n(C(C)C)n1 [Taselisib] (first compound max 1 µM, 7x7, partner max 10 µM)" metric="combination Emax" assay_result=0.845

Turning now to a further molecule:
Q: Item under review: CCN(CCO)CCCOc1ccc2c(Nc3cc(CC(=O)Nc4cccc(F)c4)[nH]n3)ncnc2c1 [AZD2811] + C[C@@H]1COCCN1C2=NC(=NC(=C2)C3(CC3)[S@](=N)(=O)C)C4=C5C=CNC5=NC=C4 [AZD6738] (first compound max 1 µM, 7x7, partner max 10 µM) . Reported combination Emax?
Result: 0.366

====

# Test system: SF539 (Glioblastoma)
# ASSAY_PROTOCOL: combination Emax (second highest fraction inhibited in the dose matrix, 72 h); higher = more inhibition; extreme values may be limits of the assay
Listing: combination Emax of selected compounds
Simply state the number, no unit and no words.

Example entries begin here.
compound="C[C@@H](Nc1cc(F)cc(F)c1)c1cc(C(=O)N(C)C)cc2c(=O)cc(N3CCOCC3)oc12 [AZD8186] + C1CN(CCC1(C(=O)N[C@@H](CCO)C2=CC=C(C=C2)Cl)N)C3=NC=NC4=C3C=CN4 [AZD5363] (first compound max 10 µM, 7x7, partner max 10 µM)" metric="combination Emax" assay_result=0.538
compound="CN(CCO)CC[C@H](CSc1ccccc1)Nc1ccc(S(=O)(=O)NC(=O)c2ccc(N3CCC([C@@H](O)c4ccccc4-c4ccc(Cl)cc4)CC3)cc2)cc1S(=O)(=O)C(F)(F)F [AZD4320] + C[C@@H](Nc1cc(F)cc(F)c1)c1cc(C(=O)N(C)C)cc2c(=O)cc(N3CCOCC3)oc12 [AZD8186] (first compound max 1 µM, 7x7, partner max 3 µM)" metric="combination Emax" assay_result=0.373
compound="NC1(C(=O)N[C@@H](CCO)c2ccc(Cl)cc2)CCN(c2ncnc3[nH]ccc23)CC1 [Capivasertib] + CC(=O)c1c(C)c2cnc(Nc3ccc(N4CCNCC4)cn3)nc2n(C2CCCC2)c1=O [Palbociclib] (first compound max 10 µM, 7x7, partner max 10 µM)" metric="combination Emax" assay_result=0.578
compound="CC1(C)CCC(CN2CCN(c3ccc(C(=O)NS(=O)(=O)c4ccc(NCC5CCOCC5)c([N+](=O)[O-])c4)c(Oc4cnc5[nH]ccc5c4)c3)CC2)=C(c2ccc(Cl)cc2)C1 [Venetoclax] + C=CCn1c(=O)c2cnc(Nc3ccc(N4CCN(C)CC4)cc3)nc2n1-c1cccc(C(C)(C)O)n1 [AZD1775] (first compound max 1 µM, partner max 1 µM)" metric="combination Emax" assay_result=0.972
compound="O=C(c1cc(Cc2n[nH]c(=O)c3ccccc23)ccc1F)N1CCN(C(=O)C2CC2)CC1 [Olaparib] + CN(CC[C@H](CSC1=CC=CC=C1)NC2=C(C=C(C=C2)S(=O)(=O)NC(=O)C3=CC=C(C=C3)N4CCC(CC4)[C@H](C5=CC=CC=C5C6=CC=C(C=C6)Cl)O)S(=O)(=O)C(F)(F)F)CCO [AZD4320] (first compound max 10 µM, 7x7, partner max 1 µM)" metric="combination Emax" assay_result=0.463
compound="Cc1cc2ncnn2cc1Nc1ncc2c(n1)n(C1CCOCC1)c(=O)n2C [AZD7648] + CCN(CCO)CCCOc1ccc2c(Nc3cc(CC(=O)Nc4cccc(F)c4)[nH]n3)ncnc2c1 [AZD2811] (first compound max 10 µM, 7x7, partner max 1 µM)" metric="combination Emax" assay_result=0.462

Q: Item under review: C=CCn1c(=O)c2cnc(Nc3ccc(N4CCN(C)CC4)cc3)nc2n1-c1cccc(C(C)(C)O)n1 [AZD1775] + O=C(c1cc(Cc2n[nH]c(=O)c3ccccc23)ccc1F)N1CCN(C(=O)C2CC2)CC1 [Olaparib] (first compound max 1 µM, partner max 10 µM) . Reported combination Emax?
Result: 1

====

# Test system: COLO-680N (Esophageal Squamous Cell Carcinoma)
# ASSAY_PROTOCOL: Bliss excess, mean over the matrix (fraction); higher = more synergy
Listing: Bliss excess of selected compounds
Simply state the number, no unit and no words.

Example entries begin here.
compound="CS(=O)(=O)CCNCc1ccc(-c2ccc3ncnc(Nc4ccc(OCc5cccc(F)c5)c(Cl)c4)c3c2)o1 [Lapatinib] + C[C@@H](Oc1cc(-c2cnn(C3CCNCC3)c2)cnc1N)c1c(Cl)ccc(F)c1Cl [Crizotinib] (first compound max 10 µM, 7x7, partner max 10 µM)" assay_result=-0.017
compound="Cn1cnc2c(F)c(Nc3ccc(Br)cc3Cl)c(C(=O)NOCCO)cc21 [Selumetinib] + C=CCn1c(=O)c2cnc(Nc3ccc(N4CCN(C)CC4)cc3)nc2n1-c1cccc(C(C)(C)O)n1 [AZD1775] (first compound max 10 µM, partner max 1 µM)" assay_result=0.0147
compound="C=CCn1c(=O)c2cnc(Nc3ccc(N4CCN(C)CC4)cc3)nc2n1-c1cccc(C(C)(C)O)n1 [AZD1775] + CCc1c2c(nc3ccc(O)cc13)-c1cc3c(c(=O)n1C2)COC(=O)[C@]3(O)CC [SN-38] (first compound max 1 µM, partner max 0.3 µM)" assay_result=-0.0066

Q: Item under review: CC1(C)CCC(CN2CCN(c3ccc(C(=O)NS(=O)(=O)c4ccc(NCC5CCOCC5)c([N+](=O)[O-])c4)c(Oc4cnc5[nH]ccc5c4)c3)CC2)=C(c2ccc(Cl)cc2)C1 [Venetoclax] + C[C@@H]1COCCN1C2=NC(=NC(=C2)C3(CC3)[S@](=N)(=O)C)C4=C5C=CNC5=NC=C4 [AZD6738] (first compound max 1 µM, 7x7, partner max 10 µM) . Reported Bliss excess?
Result: -0.0004
